observation-type: melting point
In your response, put the unit directly after the numeric value.

// solved cases for melting point follow
Supply measured melting point of COc1cc2nc(-c3ccc(C)cc3)nc(NCc3ccncc3)c2cc1OC in your reply.
208 °C

Given COCCCNc1nc(-c2ccc(C)cc2)nc2cc(OC)c(OC)cc12 , respond with its melting point.
162 °C

Recall and state the measured melting point for COc1cc2nc(-c3ccc(Cl)cc3)nc(N3CCCCCC3)c2cc1OC .
189 °C

Output melting point of COc1cc2nc(-c3ccc(C)cc3)nc(NCCO)c2cc1OC
217 °C

Kindly consider the entry below.
Tell me its melting point given COc1cc2c(NCCO)nc(-c3ccc(Cl)cc3)nc2c(OC)c1OC as the entry.
202 °C
